- Target Of Assay: MAD47 (UniProt Q9TTA5)
- Sequence (Q9TTA5 whole entry, looked up): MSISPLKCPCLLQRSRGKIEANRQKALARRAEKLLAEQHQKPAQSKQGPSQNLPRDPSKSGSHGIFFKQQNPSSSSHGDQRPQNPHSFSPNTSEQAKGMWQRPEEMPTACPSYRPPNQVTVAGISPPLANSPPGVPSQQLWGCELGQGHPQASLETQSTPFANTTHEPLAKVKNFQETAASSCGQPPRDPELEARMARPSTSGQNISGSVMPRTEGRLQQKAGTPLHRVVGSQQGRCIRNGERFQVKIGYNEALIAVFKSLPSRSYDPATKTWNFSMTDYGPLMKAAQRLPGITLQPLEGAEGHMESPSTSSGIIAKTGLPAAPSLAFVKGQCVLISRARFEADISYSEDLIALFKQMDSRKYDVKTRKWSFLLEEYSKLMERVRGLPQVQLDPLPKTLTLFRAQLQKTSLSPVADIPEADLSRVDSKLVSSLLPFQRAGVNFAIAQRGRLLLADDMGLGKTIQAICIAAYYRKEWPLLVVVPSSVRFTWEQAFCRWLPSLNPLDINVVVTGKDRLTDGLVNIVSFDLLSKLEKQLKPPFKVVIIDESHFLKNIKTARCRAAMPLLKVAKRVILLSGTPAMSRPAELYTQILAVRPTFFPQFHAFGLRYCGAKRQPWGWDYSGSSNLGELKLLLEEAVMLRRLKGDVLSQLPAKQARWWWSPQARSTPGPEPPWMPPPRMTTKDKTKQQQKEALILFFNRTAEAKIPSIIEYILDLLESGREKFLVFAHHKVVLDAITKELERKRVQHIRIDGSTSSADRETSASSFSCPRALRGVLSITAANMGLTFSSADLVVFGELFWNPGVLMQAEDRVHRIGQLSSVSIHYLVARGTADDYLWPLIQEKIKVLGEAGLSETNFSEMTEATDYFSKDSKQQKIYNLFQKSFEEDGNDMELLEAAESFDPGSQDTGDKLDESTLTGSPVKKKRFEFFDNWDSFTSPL
- Procedure Text: intrinsic tryptophan fluorescence quenching
- Reported Conditions: Fluorescence at 25 C (Cary-Varian spectrofluorimeter); buffer, salt and pH not given (as in ref 13)
Property Measured: Kd (nM)

INSERT INTO measurements (query_sequence, property_measured, observed) VALUES
  ('GCGCAATTGCGCTCGACGATTTTTTAGCGCAATTGCGC [slDNA (stem-loop DNA)]', 'Kd', 6.5);
